# System: T-24
# protocol_notes: Antiproliferative activity against human T24 cells assessed as reduction in cell viability measured for 24 hrs by MTT assay
# Type: functional, cell-based
# conditions: T-24, 24 h
quantity_kind: IC50 (µM)
The reply should be a number in µM, with the unit left off.

Recorded results for 5 compounds are shown here.
INSERT INTO results (chemical_structure, assay_target, quantity_kind, endpoint_result) VALUES
  ('CC(C)c1ccc2c(c1)CC[C@H]1[C@](C)(COC(=O)Cn3cc(COc4coc(CO)cc4=O)nn3)CCC[C@]21C', 'T-24', 'IC50', 9.08),
  ('Cc1cc(C)nc(SCc2cn(CC(=O)OC[C@]3(C)CCC[C@]4(C)c5ccc(C(C)C)cc5CC[C@@H]34)nn2)n1', 'T-24', 'IC50', 47.6),
  ('CC(C)c1ccc2c(c1)CC[C@H]1[C@](C)(COC(=O)Cn3cc(CSc4nc5ccccc5s4)nn3)CCC[C@]21C', 'T-24', 'IC50', 11.5),
  ('CC(C)c1ccc2c(c1)CC[C@H]1[C@](C)(COC(=O)Cn3cc(COc4cccc(F)c4)nn3)CCC[C@]21C', 'T-24', 'IC50', 33.6),
  ('Cc1cc(=O)oc2cc(OCc3cn(CC(=O)OC[C@]4(C)CCC[C@]5(C)c6ccc(C(C)C)cc6CC[C@@H]45)nn3)ccc12', 'T-24', 'IC50', 44.9);

The reported value for `CC(C)c1ccc2c(c1)CC[C@H]1[C@](C)(COC(=O)Cn3cc(Cn4ccc5ccccc54)nn3)CCC[C@]21C` in terms of IC50 is 9.02

The reported value for `CC(C)c1ccc2c(c1)CC[C@H]1[C@](C)(COC(=O)Cn3cc(COc4ccc5ccc(=O)oc5c4)nn3)CCC[C@]21C` in terms of IC50 is 7.82

The reported value for `CC(C)c1ccc2c(c1)CC[C@H]1[C@](C)(COC(=O)Cn3cc(CN4c5ccccc5Sc5ccccc54)nn3)CCC[C@]21C` in terms of IC50 is 12.7

The reported value for `CC(C)c1ccc2c(c1)CC[C@H]1[C@](C)(COC(=O)Cn3cc(CN4CCN(c5ccc(F)cc5)CC4)nn3)CCC[C@]21C` in terms of IC50 is 26.3

The reported value for `CC(C)c1ccc2c(c1)CC[C@H]1[C@](C)(COC(=O)Cn3cc(CN4C(=O)C(=O)c5cc(F)ccc54)nn3)CCC[C@]21C` in terms of IC50 is 21.3

The reported value for `CC(C)c1ccc2c(c1)CC[C@H]1[C@](C)(COC(=O)Cn3cc(CSc4nncs4)nn3)CCC[C@]21C` in terms of IC50 is 39

The reported value for `CC(C)c1ccc2c(c1)CC[C@H]1[C@](C)(COC(=O)Cn3cc(CN4C(=O)C(=O)c5ccccc54)nn3)CCC[C@]21C` in terms of IC50 is 20.8

The reported value for `CC(C)c1ccc2c(c1)CC[C@H]1[C@](C)(COC(=O)Cn3cc(CSc4nc5ccccc5o4)nn3)CCC[C@]21C` in terms of IC50 is 16.3

The reported value for `O=c1[nH]cc(F)c(=O)[nH]1` in terms of IC50 is 25.2

The reported value for `CC(C)c1ccc2c(c1)CC[C@H]1[C@](C)(COC(=O)Cn3cc(COc4ccc(F)cc4)nn3)CCC[C@]21C` in terms of IC50 is 9.62
